Test system: NA constricted rabbit aorta
assay details: Relaxing effects on vascular smooth muscle constricted by noradrenaline (NA) in vitro
conditions used: relaxation of rabbit aorta constricted by noradrenaline (10^−5 mol/L); mean±SEM, n=5
observable: −logEC50
Answer using only a numeral; do not append any unit.

Examples from the recorded data:
[
  {
    "molecular string": "Fc1cccc(C2CCN(CCCCn3cnc4ccccc43)CC2)c1",
    "−logEC50": 4.67
  },
  {
    "molecular string": "Cc1ccc2nnn(CCCN3CCC(c4noc5cc(F)ccc45)CC3)c2c1",
    "−logEC50": 5.35
  },
  {
    "molecular string": "Fc1ccc2c(C3CCN(CCCn4nnc5ccc(Cl)cc54)CC3)noc2c1",
    "−logEC50": 5.22
  }
]

For NA constricted rabbit aorta, provide −logEC50 of Fc1ccc2nnn(CCCCN3CCC(c4cccc(C(F)(F)F)c4)CC3)c2c1 please.
5.21

Can you check COc1ccc2c(C3CCN(CCCCn4nnc5ccc(C#N)cc54)CC3)noc2c1 next?
5.09

Now consider COc1ccc2nnn(CCCCN3CCC(c4cccc(C(F)(F)F)c4)CC3)c2c1 .
4.77
